biological target: Glucocorticoid receptor (Rattus norvegicus); test: Antagonist activity at GR in rat PBMC assessed as reduction in dexamethasone-induced GILZ gene expression incubated for 24 hrs by RT-qPCR method; type: cell-based
Sequence (P06536 whole entry): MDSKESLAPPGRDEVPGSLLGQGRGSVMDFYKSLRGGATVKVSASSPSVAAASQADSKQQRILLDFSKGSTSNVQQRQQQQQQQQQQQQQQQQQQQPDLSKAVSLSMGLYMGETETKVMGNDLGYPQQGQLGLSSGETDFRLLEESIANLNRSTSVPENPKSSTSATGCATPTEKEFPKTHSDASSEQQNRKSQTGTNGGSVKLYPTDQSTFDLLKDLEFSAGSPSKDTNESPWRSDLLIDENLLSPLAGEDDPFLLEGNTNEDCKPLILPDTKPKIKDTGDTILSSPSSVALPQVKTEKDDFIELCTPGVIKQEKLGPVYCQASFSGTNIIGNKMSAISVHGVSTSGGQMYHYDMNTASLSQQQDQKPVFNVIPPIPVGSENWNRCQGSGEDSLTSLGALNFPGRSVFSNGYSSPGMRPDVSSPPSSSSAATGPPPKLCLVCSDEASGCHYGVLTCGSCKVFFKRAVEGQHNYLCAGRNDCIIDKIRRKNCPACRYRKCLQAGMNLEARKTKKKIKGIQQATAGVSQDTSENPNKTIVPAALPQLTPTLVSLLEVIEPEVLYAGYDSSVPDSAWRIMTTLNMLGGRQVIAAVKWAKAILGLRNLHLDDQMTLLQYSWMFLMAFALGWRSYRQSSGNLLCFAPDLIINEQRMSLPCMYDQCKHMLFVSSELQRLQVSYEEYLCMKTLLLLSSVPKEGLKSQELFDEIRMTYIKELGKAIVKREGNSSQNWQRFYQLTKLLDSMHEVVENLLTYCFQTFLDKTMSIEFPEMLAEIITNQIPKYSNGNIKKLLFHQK
pIC50: −log10 of the molar value.
OUTCOME_MEASURE: pIC50

[[record]]
compound_string = "CC(C)N(C)c1ccc([C@H]2C[C@@]3(C)[C@@H](CC[C@@]3(O)C#CC(C)(C)C)[C@@H]3CCC4=CC(=O)CC[C@@H]4[C@H]32)cc1"
value_reported = 7.23


---

assay: Volume of distribution at steady state in rat at 0.5 mg/kg, iv; type: ADME, organism-based; conditions: in vivo, read-out: Vdss
// reported Vd per item
OUTCOME_MEASURE: Vd (L/kg)

[[record]]
compound = "CC(C)N(C)c1ccc([C@H]2C[C@@]3(C)[C@@H](CC[C@@]3(O)C#CC(C)(C)C)[C@@H]3CCC4=CC(=O)CCC4=C32)cc1"
units_of_measure = "L/kg"
value_reported = 4.7

[[record]]
compound = "CC#C[C@]1(O)CC[C@H]2[C@@H]3CCC4=CC(=O)CCC4=C3[C@@H](c3ccc(N(C)C)cc3)C[C@@]21C [MIFEPRISTONE]"
units_of_measure = "L/kg"
value_reported = 4.1

[[record]]
compound = "CCc1ccc([C@H]2C[C@@]3(C)[C@@H](CC[C@@]3(O)C#CC(C)(C)C)[C@@H]3CCC4=CC(=O)CCC4=C32)cc1"
units_of_measure = "L/kg"
value_reported = 1.7

[[record]]
compound = "CN(C)c1ccc([C@H]2C[C@@]3(C)[C@@H](CC[C@@]3(O)C#CC(C)(C)C)[C@@H]3CCC4=CC(=O)CCC4=C32)cc1"
units_of_measure = "L/kg"
value_reported = 4.9

[[record]]
compound = "COC(C)(C)C#C[C@]1(O)CC[C@H]2[C@@H]3CCC4=CC(=O)CC[C@@H]4[C@H]3[C@@H](c3ccc(N(C)C)cc3)C[C@@]21C"
units_of_measure = "L/kg"
value_reported = 7.2

[[record]]
compound = "CC(C)(C)C#C[C@]1(O)CC[C@H]2[C@@H]3CCC4=CC(=O)CCC4=C3[C@@H](c3ccc(C4(C)COC4)cc3)C[C@@]21C"
units_of_measure = "L/kg"
value_reported = 6.7

[[record]]
compound = "CC(C)(C)C#C[C@]1(O)CC[C@H]2[C@@H]3CCC4=CC(=O)CCC4=C3[C@@H](c3ccc(N4CCCC4)cc3)C[C@@]21C"
units_of_measure = "L/kg"
value_reported = 1.5

[[record]]
compound = "CC(C)N(C)c1ccc([C@H]2C[C@@]3(C)[C@@H](CC[C@@]3(O)C#CC(C)(C)C)[C@@H]3CCC4=CC(=O)CC[C@@H]4[C@H]32)cc1"
units_of_measure = "L/kg"
value_reported = 4.6


---

Consider the following molecules and their measured AUC readings.
assay: AUC in rat at 5 mg/kg, po; type: ADME, organism-based; details: in vivo
OUTCOME_MEASURE: AUC (ng·h/mL)

[[record]]
compound_string = "CC(C)N(C)c1ccc([C@H]2C[C@@]3(C)[C@@H](CC[C@@]3(O)C#CC(C)(C)C)[C@@H]3CCC4=CC(=O)CC[C@@H]4[C@H]32)cc1"
value_reported = 635

[[record]]
compound_string = "CN(C)c1ccc([C@H]2C[C@@]3(C)[C@@H](CC[C@@]3(O)C#CC(C)(C)C)[C@@H]3CCC4=CC(=O)CCC4=C32)cc1"
value_reported = 471

[[record]]
compound_string = "CC(C)N(C)c1ccc([C@H]2C[C@@]3(C)[C@@H](CC[C@@]3(O)C#CC(C)(C)C)[C@@H]3CCC4=CC(=O)CCC4=C32)cc1"
value_reported = 290


---

assay: Clearance in mini pig at 0.5 mg/kg, iv; format: ADME, organism-based, Sus scrofa; details: in vivo
OUTCOME_MEASURE: clearance (mL/min/kg)

[[record]]
compound_string = "CC(C)N(C)c1ccc([C@H]2C[C@@]3(C)[C@@H](CC[C@@]3(O)C#CC(C)(C)C)[C@@H]3CCC4=CC(=O)CC[C@@H]4[C@H]32)cc1"
outcome_measure = "clearance"
units_of_measure = "mL/min/kg"
value_reported = 18.3


---

target: Glucocorticoid receptor (Sus scrofa, UniProt Q9N1U3); assay: Antagonist activity at GR in mini pig PBMC assessed as reduction in dexamethasone-induced GILZ gene expression incubated for 24 hrs by RT-qPCR method; type: cell-based
Sequence (Q9N1U3 whole entry): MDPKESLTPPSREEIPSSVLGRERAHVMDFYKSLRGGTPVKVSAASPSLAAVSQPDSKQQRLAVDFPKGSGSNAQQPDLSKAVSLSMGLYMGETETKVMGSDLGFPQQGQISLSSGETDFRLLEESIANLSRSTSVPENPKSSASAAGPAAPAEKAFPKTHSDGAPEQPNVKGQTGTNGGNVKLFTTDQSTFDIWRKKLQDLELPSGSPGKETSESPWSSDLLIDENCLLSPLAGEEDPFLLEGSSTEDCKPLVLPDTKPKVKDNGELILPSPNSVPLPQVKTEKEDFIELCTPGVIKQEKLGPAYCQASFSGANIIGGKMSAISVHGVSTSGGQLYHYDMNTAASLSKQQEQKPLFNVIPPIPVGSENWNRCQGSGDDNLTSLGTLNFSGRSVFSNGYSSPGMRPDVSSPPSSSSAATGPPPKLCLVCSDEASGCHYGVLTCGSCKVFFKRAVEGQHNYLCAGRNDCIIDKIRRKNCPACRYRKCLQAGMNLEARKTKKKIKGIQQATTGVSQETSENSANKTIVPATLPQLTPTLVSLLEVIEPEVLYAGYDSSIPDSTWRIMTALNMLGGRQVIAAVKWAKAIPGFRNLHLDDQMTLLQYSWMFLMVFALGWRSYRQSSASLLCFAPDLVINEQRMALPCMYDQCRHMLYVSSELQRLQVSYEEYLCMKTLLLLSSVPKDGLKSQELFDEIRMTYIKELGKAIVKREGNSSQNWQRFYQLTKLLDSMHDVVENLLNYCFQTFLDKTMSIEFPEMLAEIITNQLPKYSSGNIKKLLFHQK
OUTCOME_MEASURE: IC50

[[record]]
compound_string = "CC(C)N(C)c1ccc([C@H]2C[C@@]3(C)[C@@H](CC[C@@]3(O)C#CC(C)(C)C)[C@@H]3CCC4=CC(=O)CC[C@@H]4[C@H]32)cc1"
value_reported = "181 nM"

[[record]]
compound_string = "CC#C[C@]1(O)CC[C@H]2[C@@H]3CCC4=CC(=O)CCC4=C3[C@@H](c3ccc(N(C)C)cc3)C[C@@]21C"
value_reported = "10.9 to 25.7 nM"


---

molecules and their reported half-life
experiment: Half life in rat at 0.5 mg/kg, iv; assay type: ADME, organism-based; settings: in vivo
OUTCOME_MEASURE: half-life (h)

[[record]]
compound_string = "CC#C[C@]1(O)CC[C@H]2[C@@H]3CCC4=CC(=O)CCC4=C3[C@@H](c3ccc(N(C)C)cc3)C[C@@]21C"
value_reported = 1.6

[[record]]
compound_string = "CC(C)(C)C#C[C@]1(O)CC[C@H]2[C@@H]3CCC4=CC(=O)CCC4=C3[C@@H](c3ccc(C4(C)COC4)cc3)C[C@@]21C"
value_reported = 4.4

[[record]]
compound_string = "CC(C)(C)C#C[C@]1(O)CC[C@H]2[C@@H]3CCC4=CC(=O)CCC4=C3[C@@H](c3ccc(N4CCCC4)cc3)C[C@@]21C"
value_reported = 3.6

[[record]]
compound_string = "CN(C)c1ccc([C@H]2C[C@@]3(C)[C@@H](CC[C@@]3(O)C#CC(C)(C)C)[C@@H]3CCC4=CC(=O)CCC4=C32)cc1"
value_reported = 1.9

[[record]]
compound_string = "COC(C)(C)C#C[C@]1(O)CC[C@H]2[C@@H]3CCC4=CC(=O)CC[C@@H]4[C@H]3[C@@H](c3ccc(N(C)C)cc3)C[C@@]21C"
value_reported = 2.4


---

assay: Volume of distribution at steady state in mini pig at 0.5 mg/kg, iv; type: ADME, organism-based, Sus scrofa; details: in vivo, read-out: Vdss
OUTCOME_MEASURE: Vd (L/kg)

[[record]]
compound_string = "CC(C)N(C)c1ccc([C@H]2C[C@@]3(C)[C@@H](CC[C@@]3(O)C#CC(C)(C)C)[C@@H]3CCC4=CC(=O)CC[C@@H]4[C@H]32)cc1"
outcome_measure = "Vd"
value_reported = 7.8


---

assay: Cmax in mouse at 5 mg/kg, po; assay type: ADME, organism-based; set-up: dose 5 mg/kg, route oral; conditions: in vivo
OUTCOME_MEASURE: Cmax

[[record]]
compound_string = "CC(C)N(C)c1ccc([C@H]2C[C@@]3(C)[C@@H](CC[C@@]3(O)C#CC(C)(C)C)[C@@H]3CCC4=CC(=O)CC[C@@H]4[C@H]32)cc1"
value_reported = "274 ng/mL"


---

experiment: AUC in rat at 5 mg/kg, po; assay type: ADME, organism-based; conditions: in vivo
OUTCOME_MEASURE: AUC (ng·h/mL)

[[record]]
compound_string = "COC(C)(C)C#C[C@]1(O)CC[C@H]2[C@@H]3CCC4=CC(=O)CC[C@@H]4[C@H]3[C@@H](c3ccc(N(C)C)cc3)C[C@@]21C"
units_of_measure = "ng·h/mL"
value_reported = 544

[[record]]
compound_string = "CC(C)(C)C#C[C@]1(O)CC[C@H]2[C@@H]3CCC4=CC(=O)CCC4=C3[C@@H](c3ccc(C4(C)COC4)cc3)C[C@@]21C"
units_of_measure = "ng·h/mL"
value_reported = 123

[[record]]
compound_string = "CC#C[C@]1(O)CC[C@H]2[C@@H]3CCC4=CC(=O)CCC4=C3[C@@H](c3ccc(N(C)C)cc3)C[C@@]21C"
units_of_measure = "ng·h/mL"
value_reported = 85

[[record]]
compound_string = "CC(C)(C)C#C[C@]1(O)CC[C@H]2[C@@H]3CCC4=CC(=O)CCC4=C3[C@@H](c3ccc(N4CCCC4)cc3)C[C@@]21C"
units_of_measure = "ng·h/mL"
value_reported = 167


---

Biological target: Androgen receptor (Homo sapiens, UniProt P10275)
Sequence (P10275 whole entry): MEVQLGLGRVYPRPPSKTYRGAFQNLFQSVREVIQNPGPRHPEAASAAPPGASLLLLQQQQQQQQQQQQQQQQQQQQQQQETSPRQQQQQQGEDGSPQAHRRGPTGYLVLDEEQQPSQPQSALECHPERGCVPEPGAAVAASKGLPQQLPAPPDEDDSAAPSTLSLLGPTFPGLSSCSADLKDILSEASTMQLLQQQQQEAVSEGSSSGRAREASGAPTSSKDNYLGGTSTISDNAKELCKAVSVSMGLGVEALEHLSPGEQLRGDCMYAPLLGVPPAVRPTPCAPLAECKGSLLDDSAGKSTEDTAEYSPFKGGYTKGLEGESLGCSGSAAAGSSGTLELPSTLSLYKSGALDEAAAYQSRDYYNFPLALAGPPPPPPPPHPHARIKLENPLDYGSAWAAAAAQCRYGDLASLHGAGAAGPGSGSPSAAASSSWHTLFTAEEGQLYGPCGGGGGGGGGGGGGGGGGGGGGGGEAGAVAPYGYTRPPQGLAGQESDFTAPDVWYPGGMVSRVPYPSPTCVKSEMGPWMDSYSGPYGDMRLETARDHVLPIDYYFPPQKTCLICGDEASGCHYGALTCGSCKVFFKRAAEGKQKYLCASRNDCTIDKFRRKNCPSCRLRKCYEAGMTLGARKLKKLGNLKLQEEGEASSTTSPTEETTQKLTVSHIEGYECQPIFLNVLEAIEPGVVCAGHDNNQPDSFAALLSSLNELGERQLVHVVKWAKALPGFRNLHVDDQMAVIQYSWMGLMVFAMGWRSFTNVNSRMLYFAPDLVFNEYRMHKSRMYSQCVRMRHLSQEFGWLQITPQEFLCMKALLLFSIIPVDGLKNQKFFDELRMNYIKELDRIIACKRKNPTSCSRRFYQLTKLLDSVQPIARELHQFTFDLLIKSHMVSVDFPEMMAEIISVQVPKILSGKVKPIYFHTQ
Test: Agonist activity at AR (unknown origin) expressed in human LNCaP cells incubated for 20 hrs by luciferase reporter gene assay
OUTCOME_MEASURE: EC50

[[record]]
compound_string = "CCC#C[C@]1(O)CC[C@H]2[C@@H]3CCC4=CC(=O)CCC4=C3[C@@H](c3ccc(N(C)C)cc3)C[C@@]21C"
outcome_measure = "EC50"
value_reported = "30 nM"

[[record]]
compound_string = "CC#C[C@]1(O)CC[C@H]2[C@@H]3CCC4=CC(=O)CCC4=C3[C@@H](C3CCCCC3)C[C@@]21C"
outcome_measure = "EC50"
value_reported = "> 2500 nM"

[[record]]
compound_string = "CC(C)(C)C#C[C@]1(O)CC[C@H]2[C@@H]3CCC4=CC(=O)CCC4=C3[C@@H](c3ccc(N4CCOCC4)cc3)C[C@@]21C"
outcome_measure = "EC50"
value_reported = "> 2500 nM"

[[record]]
compound_string = "CC#C[C@]1(O)CC[C@H]2[C@@H]3CCC4=CC(=O)CCC4=C3[C@@H](c3ccc(C(C)C)cc3)C[C@@]21C"
outcome_measure = "EC50"
value_reported = "13 nM"

[[record]]
compound_string = "CC(C)C#C[C@]1(O)CC[C@H]2[C@@H]3CCC4=CC(=O)CCC4=C3[C@@H](c3ccc(N(C)C)cc3)C[C@@]21C"
outcome_measure = "EC50"
value_reported = "> 2500 nM"

[[record]]
compound_string = "CN(C)c1ccc([C@H]2C[C@@]3(C)[C@@H](CC[C@@]3(O)C#CC(F)(F)F)[C@@H]3CCC4=CC(=O)CCC4=C32)cc1"
outcome_measure = "EC50"
value_reported = "54 nM"

[[record]]
compound_string = "CC(C)(C)C#C[C@]1(O)CC[C@H]2[C@@H]3CCC4=CC(=O)CCC4=C3[C@@H](c3ccc(N4CCCC4)cc3)C[C@@]21C"
outcome_measure = "EC50"
value_reported = "> 2500 nM"

[[record]]
compound_string = "Cc1ccc([C@H]2C[C@@]3(C)[C@@H](CC[C@@]3(O)C#CC(C)(C)C)[C@@H]3CCC4=CC(=O)CCC4=C32)cc1"
outcome_measure = "EC50"
value_reported = "> 2500 nM"

[[record]]
compound_string = "COc1ccc([C@H]2C[C@@]3(C)[C@@H](CC[C@@]3(O)C#CC(C)(C)C)[C@@H]3CCC4=CC(=O)CCC4=C32)cc1"
outcome_measure = "EC50"
value_reported = "> 2500 nM"

[[record]]
compound_string = "COc1cc([C@H]2C[C@@]3(C)[C@@H](CC[C@@]3(O)C#CC(C)(C)C)[C@@H]3CCC4=CC(=O)CCC4=C32)ccc1N(C)C"
outcome_measure = "EC50"
value_reported = "> 2500 nM"

[[record]]
compound_string = "CC(C)N(C)c1ccc([C@H]2C[C@@]3(C)[C@@H](CC[C@@]3(O)C#CC(C)(C)C)[C@@H]3CCC4=CC(=O)CC[C@@H]4[C@H]32)cc1"
outcome_measure = "EC50"
value_reported = "> 2500 nM"

[[record]]
compound_string = "Cc1cc([C@H]2C[C@@]3(C)[C@@H](CC[C@@]3(O)C#CC(C)(C)C)[C@@H]3CCC4=CC(=O)CCC4=C32)ccc1N(C)C"
outcome_measure = "EC50"
value_reported = "> 2500 nM"

[[record]]
compound_string = "COC(C)(C)C#C[C@]1(O)CC[C@H]2[C@@H]3CCC4=CC(=O)CC[C@@H]4[C@H]3[C@@H](c3ccc(N(C)C)cc3)C[C@@]21C"
outcome_measure = "EC50"
value_reported = "> 2500 nM"

